experiment: Determination of rapamycin in murine whole blood (HPLC, ion-trap MS); format: in vivo; settings: C3H/HeJ, mouse, whole blood, other: intranasal, 0.7 mg/kg, 1 h after an i.n. dose of 0.7 mg/kg, read-out: blood level of rapamycin
readout_kind: concentration at 1 h (ng/mL)
The response must be a number in ng/mL with no trailing unit.

Look up concentration at 1 h for this compound: CO[C@H]1C[C@@H]2CC[C@@H](C)[C@@](O)(O2)C(=O)C(=O)N2CCCC[C@H]2C(=O)O[C@H]([C@H](C)C[C@@H]2CC[C@@H](O)[C@H](OC)C2)CC(=O)[C@H](C)/C=C(\C)[C@@H](O)[C@@H](OC)C(=O)[C@H](C)C[C@H](C)/C=C/C=C/C=C/1C 492
